Listing of recorded %Inh by entry.
System: CSNK1G1;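 further: KINOMEscan kinase panel screen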
Test context: concentration: 1 μM,replicates: in singlicate; n = 1

Compound | %Inh / %
COc1ccc(Nc2nccc(N3CCC(NC(=O)c4cccc(C#N)c4)C3)n2)cc1 (stereo not drawn) | 3
CC(=O)c1c(-c2ccncc2)[nH]c(-c2ccncc2)c1C | 84
O=C(Nc1cccc(C(F)(F)F)c1)c1cccc(Oc2ccc3nccn3n2)c1 | 1
NC(=O)Nc1sc(-c2ccc(F)cc2)cc1C(N)=O | 0
CN(c1cccc(CNc2nc(Nc3ccc4c(c3)CC(=O)N4)ncc2C(F)(F)F)c1)S(C)(=O)=O | 0
CN1CCN(CCCNc2nccc(-c3c(-c4ccc(F)cc4)nn4cc(C(N)=O)ccc34)n2)CC1 | 27
COc1cccc(C2=C(Nc3cccc(Cl)c3)C(=O)NC2=O)c1 | 0
Cc1ccc2c(-c3ccnc(Nc4ccc(C(F)(F)F)cc4)n3)cnn2n1 | 0
CS(=O)(=O)Nc1ccc(-c2ccnc3[nH]ccc23)cc1 | 0

Each recorded value in this set is attributed to paper PMC5540273.
